# Test system: HEK-293T
# test.method.notes: Multiplex assay against HEK293T
# Type: toxicity, cell-based
# condition.context: human, 24 h, 1 µM, compound concentration 1 uM, replicate 1
measurement.kind: Population Mitochondria Different-Phenotype (%)
Write it as a number; the unit % goes unstated.

INSERT INTO measurements (molecule, test_value) VALUES
  ('CC(C)[C@H](CO)Nc1nc(Nc2cccc(Cl)c2)c2ncn(C(C)C)c2n1', 75),
  ('Cc1ccc(S(=O)(=O)NC2c3ccccc3Oc3ccccc32)cc1', 55),
  ('Cc1ccc(NC(=O)Nc2cc(C(F)(F)F)ccc2F)cc1Nc1ccc2c(c1)NC(=O)/C2=C\c1ccc[nH]1', 0),
  ('CC(Cc1ccc(O)c(O)c1)C(C)Cc1ccc(O)c(O)c1 (centres undefined) [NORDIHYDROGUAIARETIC ACID]', 46),
  ('C[C@@H](Oc1cc(-n2cnc3ccc(CN4CCN(C)CC4)cc32)sc1C(N)=O)c1ccccc1C(F)(F)F', 98),
  ('CCCCN(CC)c1nc(C)nc2c1c(C)cn2-c1c(C)cc(C)cc1C.Cl', 61),
  ('CCCc1cc(C)[nH]c(=O)c1CNC(=O)c1cc(-c2ccc(N3CCN(C(C)C)CC3)nc2)cc2c1cnn2C(C)C', 97),
  ('Cc1c(P(=S)(c2ccccc2)c2ccccc2)n2ccccc2[n+]1C/C=C/c1ccccc1.[Br-]', 90);

Test item N#CCNC(=O)c1ccc(-c2ccnc(Nc3ccc(N4CCOCC4)cc3)n2)cc1 ; HEK-293T; reported Population Mitochondria Different-Phenotype (%) was 44
